# procedure-text: recombinant UMI read abundance after kanamycin selection (control-corrected) (log10(CPM+1)); higher = more efficient recombination; extreme values may be limits of the assay; sequences stand for … in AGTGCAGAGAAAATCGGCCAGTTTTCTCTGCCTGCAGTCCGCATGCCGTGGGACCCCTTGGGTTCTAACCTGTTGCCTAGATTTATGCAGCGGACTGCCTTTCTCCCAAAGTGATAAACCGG…AGGTTGGTTTCACT; site = the 11-nt donor;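 note: IS621 bridge recombinase in Escherichia coli cells against a fixed T5 target plasmid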
Each item that follows carries a reported recombinant UMI read abundance (log10).
reported-property: recombinant UMI read abundance (log10)

- ACGCGGCCATGGACCGGTTTTCCCGGTAATCCGTATTTGCA (site ACGCGGCCTTG): 1.1
- CAATTCCCATGGACCGGTTTTCCCGGTAATCCGTATTTGTT (site CAATTCCCTAG): 1.41
- GTTGTTCCATGGACCGGTTTTCCCGGTAATCCGTATTTGGG (site GTTGTTCCTGC): 0
- CTCCCTGCATGGACCGGTTTTCCCGGTAATCCGTATTTGAG (site CTCCCTGCTCT): 1.16
- CAGTCTACATGGACCGGTTTTCCCGGTAATCCGTATTTGGG (site CAGTCGACTCC): 0.00653
- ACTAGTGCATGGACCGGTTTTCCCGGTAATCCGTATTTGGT (site ACTAGGGCTAC): 0.0226
- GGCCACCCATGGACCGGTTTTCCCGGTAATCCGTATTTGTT (site GGCCGCCCTAA): 0.0085
- CGTTTGGCATGGACCGGTTTTCCCGGTAATCCGTATTTGCA (site CGTTTGGCTTG): 0.562
- AGCCTCTCATGGACCGGTTTTCCCGGTAATCCGTATTTGAC (site AGCCTCTCTGT): 0
- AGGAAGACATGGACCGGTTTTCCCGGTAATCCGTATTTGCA (site AGGAAAACTTG): 0.57
- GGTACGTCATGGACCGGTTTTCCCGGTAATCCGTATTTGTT (site GGTATGTCTAA): 0.00457
- CACGCGACATGGACCGGTTTTCCCGGTAATCCGTATTTGTA (site CACGCGACTTA): 2.4
- CTAGCAGCATGGACCGGTTTTCCCGGTAATCCGTATTTGCT (site CTAGCAGCTAG): 1.36
- AAGCGCGCATGGACCGGTTTTCCCGGTAATCCGTATTTGGG (site AAGCACGCTCC): 0.0182
- ACACCTACATGGACCGGTTTTCCCGGTAATCCGTATTTGTG (site ACAGCTACTCA): 0.0267
- CGAGGAACATGGACCGGTTTTCCCGGTAATCCGTATTTGTT (site CGGGGAACTAA): 0.474
- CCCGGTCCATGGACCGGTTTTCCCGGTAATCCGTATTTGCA (site CCTGGTCCTTG): 0.00597
- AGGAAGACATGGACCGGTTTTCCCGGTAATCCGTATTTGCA (site AGGAAAACTCG): 0
- GCCAAAACATGGACCGGTTTTCCCGGTAATCCGTATTTGCT (site GCGAAAACTAG): 0
- GATCTCACATGGACCGGTTTTCCCGGTAATCCGTATTTGAT (site GATCTCACTAT): 0.574
- CTTTGCCCATGGACCGGTTTTCCCGGTAATCCGTATTTGAG (site CTTTGCCCTCT): 0.0229
- TAAGGTACATGGACCGGTTTTCCCGGTAATCCGTATTTGTA (site TAAGGTACTTA): 2.09
- ACGCACACATGGACCGGTTTTCCCGGTAATCCGTATTTGAA (site ACGCACACTTT): 2.08
- TGGAAGACATGGACCGGTTTTCCCGGTAATCCGTATTTGCA (site CGGAAGACTTG): 1.44
- CACTTAGCATGGACCGGTTTTCCCGGTAATCCGTATTTGGA (site CACTTAGCTTC): 1.16
- GAAGGGACATGGACCGGTTTTCCCGGTAATCCGTATTTGCA (site GAAGGGACTTG): 2.41
- TATGTGTCATGGACCGGTTTTCCCGGTAATCCGTATTTGAC (site GATGTGTCTGT): 0
- AGGTTCGCATGGACCGGTTTTCCCGGTAATCCGTATTTGTG (site AGGTTCGCTCA): 0.666
- TTTGAGACATGGACCGGTTTTCCCGGTAATCCGTATTTGGT (site CTTGAGACTAC): 0.0146
- CGAGTATCATGGACCGGTTTTCCCGGTAATCCGTATTTGGC (site CGAGTATCTGC): 3.08
- CTGGGATCATGGACCGGTTTTCCCGGTAATCCGTATTTGCT (site CTGGGATCTAG): 1.9
- GTATGGACATGGACCGGTTTTCCCGGTAATCCGTATTTGTA (site GTATGAACTTA): 2.39
- ATGTAGACATGGACCGGTTTTCCCGGTAATCCGTATTTGGC (site ATGTAGGCTGC): 2.14
- AGATAGACATGGACCGGTTTTCCCGGTAATCCGTATTTGCC (site TGATAGACTGG): 2.34
- TCCAATACATGGACCGGTTTTCCCGGTAATCCGTATTTGCC (site TCCAATGCTGG): 0
- AACTATACATGGACCGGTTTTCCCGGTAATCCGTATTTGAC (site ATCTATACTGT): 1.94

src = the supplement of paper PMC11208160
